# Test system: SkMel28 melanoma cells
# test: Cell survival assay (SRB)
# Format: cell-based, human
# assay.setup: Homo sapiens; SK-MEL-28 (melanoma); read-out: Cytoselectivities (nM) SK-MEL-28
Under this convention, satisfied denotes IC50 strictly below 100 nM and not satisfied denotes IC50 at or above 100 nM.

{"compound": "O=C(CCCCC[C@H](NC(=O)c1ccc(Br)cc1)C(=O)Nc1ccc(-c2ccccc2)cc1)NO [Example 161]", "class.assignment": "not satisfied"}

stdin: Hi there! Is IC50 for O=C(CCCCC[C@H](NC(=O)c1cc2ccccc2[nH]1)C(=O)Nc1cccc2cccnc12)NO [Example 132] below 100 nM, do you know?
stdout: satisfied

stdin: Follow-up item: CN(C)c1ccc(C(=O)N[C@@H](CCCCCC(=O)NO)C(=O)Nc2cccc3cccnc23)cc1 [Example 126]
stdout: satisfied

stdin: Follow-up item: O=C(CCCCC[C@H](NC(=O)OCc1ccccc1)C(=O)Nc1cccc2cccnc12)NO [Example 148]
stdout: not satisfied

stdin: Follow-up item: O=C(/C=C/c1ccccc1)N[C@@H](CCCCCC(=O)NO)C(=O)Nc1cccc2cccnc12 [Example 146]
stdout: satisfied

stdin: Follow-up item: CC(C)COC(=O)N[C@@H](CCCCCC(=O)NO)C(=O)Nc1cccc2cccnc12 [Example 149]
stdout: not satisfied

----------
# System: CI-80-13S ovarian cancer cells
# test: Cell survival assay (SRB)
# Type: cell-based, human
# assay.setup: CI80-13S; read-out: Cytoselectivities (nM) CI80-13S
Each entry below carries its recorded log10 IC50.
The common logarithm of IC50 in nM is what is listed.

Examples from the recorded data:
{"molecule": "CN(C)c1ccc(C(=O)N[C@H](CCCCCC(=O)NO)C(=O)Nc2cccc3cccnc23)cc1 [126 R]", "log10 IC50": 1.63}
{"molecule": "O=C(CCCCC[C@@H](NC(=O)c1ccc(Br)cc1)C(=O)Nc1ccc(-c2ccccc2)cc1)NO [161 R]", "log10 IC50": 4.27}
{"molecule": "O=C(/C=C/c1ccccc1)N[C@H](CCCCCC(=O)NO)C(=O)Nc1cccc2cccnc12 [146 R]", "log10 IC50": 1.96}
{"molecule": "O=C(CCCCC[C@@H](NC(=O)OCc1ccccc1)C(=O)Nc1cccc2cccnc12)NO [148 R]", "log10 IC50": 1.46}

Now, please, on to the next molecule.
stdin: Item: O=C(CCCCC[C@@H](NC(=O)c1cc2ccccc2[nH]1)C(=O)Nc1cccc2cccnc12)NO [132 R] Test system: CI-80-13S ovarian cancer cells Read-out: log10 IC50 Value: ?
stdout: 1.43

----------
# Tested on: MM329 melanoma cells
# test: Cell survival assay (SRB)
# Format: cell-based, human
# assay.setup: Homo sapiens; Table 11, antiproliferative potency
quantity.name: IC50 (µM)
Number only, in µM; omit the unit.

stdin: Look at this compound and give its reported IC50. CN(C)c1ccc(C(=O)N[C@@H](CCCCCC(=O)NO)C(=O)NCc2ccccc2)cc1 (racemic) [Example 124]
stdout: 0.06

----------
# Tested on: DU145 prostate cancer cells
# test: Cell survival assay (SRB)
# Type: cell-based, human
# assay.setup: DU145 (prostate); read-out: Cytoselectivities (nM) DU145
Each entry below carries its recorded IC50.
Value and unit, in that order.

Examples from the recorded data:
{"smiles.text": "O=C(CCCCC[C@@H](NC(=O)OCc1ccccc1)C(=O)Nc1cccc2cccnc12)NO", "reading": "39 nM"}
{"smiles.text": "O=C(/C=C/c1ccccc1)N[C@H](CCCCCC(=O)NO)C(=O)Nc1cccc2cccnc12", "reading": "63 nM"}
{"smiles.text": "O=C(CCCCC[C@@H](NC(=O)c1cc2ccccc2[nH]1)C(=O)Nc1cccc2cccnc12)NO", "reading": "33 nM"}

stdin: Look at this compound and give its reported IC50. CN(C)c1ccc(C(=O)N[C@H](CCCCCC(=O)NO)C(=O)Nc2cccc3cccnc23)cc1
stdout: 52 nM

stdin: Follow-up item: O=C(CCCCC[C@@H](NC(=O)c1ccc(Br)cc1)C(=O)Nc1ccc(-c2ccccc2)cc1)NO
stdout: 18600 nM
